Cited source for all entries: patent US8754115B2

Can you tell me Test E2 rating (% disease control) for the items I'm about to list?
- Test system: Puccinia recondite f. sp. tritici
- experimental.details: Test E2: preventive spray on wheat seedlings, visual disease rating (wheat leaf rust)
- Assay type: in vivo
- details: no asterisk: standard test suspension, not 40 ppm
API: value field is a number in %; no unit string.

Problem: Return Test E2 rating (% disease control) (reported value) for this compound: Cc1nn(C)c(-c2ccc(F)cc2Cl)c1Nc1ccc(F)cc1Cl
Result: 99

Problem: Quick one: give measured Test E2 rating (% disease control) for Cc1nn(C)c(-c2ccc(F)cc2Cl)c1C(O)c1ccc(F)cc1F (stereo not drawn)
Result: 100

Problem: Note Test E2 rating (% disease control) for the compound shown: Cc1nn(C)c(-c2c(F)cccc2Cl)c1C(O)c1ccc(F)cc1Br (stereo not drawn)
Result: 100

###

- Test system: Blumeria graminis f. sp. tritici
- experimental.details: Test F: preventive spray on wheat seedlings, visual disease rating (wheat powdery mildew)
- Format: in vivo
- details: no asterisk: standard test suspension, not 40 ppm
Answer each item with its documented Test F rating (% disease control).
Kindly provide the numeric value in % only, without the unit symbol.

Problem: Please indicate Test F rating (% disease control) recorded for Cc1nn(C)c(-c2ccc(F)cc2F)c1Oc1ccc(C#N)cc1Cl
Result: 0

Problem: Give the reported value of Test F rating (% disease control) for this record: Cc1nn(C)c(-c2ccccc2I)c1C(=O)c1ccc(F)cc1Br
Result: 99

Problem: Recall and state the measured Test F rating (% disease control) for Cn1nc(Br)c(C(O)c2ccc(Cl)cc2Cl)c1-c1c(F)cccc1F (stereo not drawn) .
Result: 98

Problem: Given the compound Cc1nn(C)c(-c2c(Cl)cccc2Cl)c1C(O)c1ccc(Cl)cc1 (stereo not drawn) , write its reported Test F rating (% disease control).
Result: 89

Problem: Indicate the recorded Test F rating (% disease control) value for this compound: Cc1nn(C)c(-c2c(F)cccc2Cl)c1C(C)(O)c1ccc(F)cc1F (stereo not drawn)
Result: 96

Problem: Identify measured Test F rating (% disease control) associated with Cc1nn(C)c(-c2c(F)cc(Br)cc2F)c1C(=O)c1ccc(F)cc1F
Result: 97

Problem: Fill in reported Test F rating (% disease control) for this entry: Cn1nc(Br)c(C(O)c2ccc(F)cc2Br)c1-c1ccc(F)cc1Cl (stereo not drawn)
Result: 0

Problem: Supply Test F rating (% disease control) value. Item: Cc1nn(C)c(-c2ccc(C#N)cc2Cl)c1Oc1ccc(F)cc1Cl
Result: 100

Problem: Identify the reported Test F rating (% disease control) for the following entry. Cn1nc(Br)c(C(=O)c2ccc(F)cc2F)c1-c1ccc(F)cc1Cl
Result: 0

Problem: Give Test F rating (% disease control) for the following compound: Cc1nn(C)c(-c2ccc(Cl)cc2Cl)c1C(O)c1ccc(F)cc1F (stereo not drawn)
Result: 99

Problem: For the compound Cc1nn(C)c(-c2c(F)cc(F)cc2F)c1C(O)c1ccc(F)cc1F (stereo not drawn) , report Test F rating (% disease control).
Result: 99

Problem: Provide only the value of recorded Test F rating (% disease control) for Cc1nn(C)c(-c2ccc(F)cc2Cl)c1C(O)c1ccc(F)cc1Br (stereo not drawn)
Result: 84

###

- Test system: Blumeria graminis f. sp. tritici
- experimental.details: Test F: preventive spray on wheat seedlings, visual disease rating (wheat powdery mildew)
- Assay type: in vivo
- details: asterisk: 40 ppm test suspension
Marks after values point to notes of the source that are not given here.
Consider the following molecules; for each one, report its Test F rating (% disease control).

Problem: Identify Test F rating (% disease control) associated with the molecule COc1ccc(C(O)c2c(C)nn(C)c2-c2ccc(F)cc2Cl)c(Cl)c1 (stereo not shown)
Result: 0* %

Problem: Let me know recorded Test F rating (% disease control) for COc1cc(F)c(-c2c(C(O)c3ccc(F)cc3F)c(C)nn2C)c(F)c1 (stereo not shown) , thanks.
Result: 100* %

Problem: Annotate the molecule Cc1nn(C)c(-c2ccc(F)cc2F)c1C(O)c1ccc(F)cc1Cl (stereo not shown) with its measured Test F rating (% disease control).
Result: 99* %

Problem: Recall and state the measured Test F rating (% disease control) for COCOC(c1ccc(F)cc1Cl)c1c(C)nn(C)c1-c1c(F)cccc1F (stereo not shown) .
Result: 99* %

Problem: Fill in reported Test F rating (% disease control) for this entry: COc1nn(C)c(-c2c(F)cc(Cl)cc2F)c1C(O)c1ccc(F)cc1Cl (stereo not shown)
Result: 64* %

Problem: Supply Test F rating (% disease control) value. Item: Cc1nn(C)c(-c2c(F)cccc2Cl)c1C(F)c1c(F)cc(F)cc1F (stereo not shown)
Result: 99* %

Problem: Give reported Test F rating (% disease control) value for Cc1nn(C)c(-c2ccc(F)cc2Cl)c1Nc1ccc(Cl)cc1F
Result: 100* %

Problem: Hello, please tell me recorded Test F rating (% disease control) for this one: Cc1nn(C)c(-c2c(F)cccc2F)c1C(SC#N)c1c(F)cc(F)cc1F (stereo not shown)
Result: 0* %

Problem: Using known records, supply Test F rating (% disease control) for Cc1nn(C)c(-c2c(F)cccc2Cl)c1C(SC#N)c1ccc(F)cc1Cl (stereo not shown)
Result: 100* %

Problem: Indicate its recorded Test F rating (% disease control); the molecule in question is COc1nn(C)c(-c2c(F)cc(F)cc2Cl)c1C(O)c1ccc(F)cc1Cl (stereo not shown)
Result: 99* %

###

- Test system: Puccinia recondite f. sp. tritici
- experimental.details: Test E2: preventive spray on wheat seedlings, visual disease rating (wheat leaf rust)
- Type: in vivo
- details: no asterisk: standard test suspension, not 40 ppm
Kindly supply the reported Test E2 rating (% disease control) values for the records listed here.
Record the result as a number with its unit.

Problem: Complete the entry with Test E2 rating (% disease control) for Cc1nn(C)c(-c2ccc(Cl)cc2Cl)c1C(=O)c1ccc(F)cc1F
Result: 89%

Problem: Report Test E2 rating (% disease control) for Cc1nn(C)c(-c2ccc(F)cc2Cl)c1C(O)c1ccc(C#N)cc1F (stereo not shown)
Result: 100%

Problem: Give reported Test E2 rating (% disease control) value for Cn1nc(Br)c(C(=O)c2ccc(F)cc2F)c1-c1ccc(F)cc1Cl
Result: 0%

Problem: State, in one line, measured Test E2 rating (% disease control) of Cc1nn(C)c(-c2c(F)cccc2F)c1C(O)c1ccc(F)cc1Cl (single isomer, unassigned) [compound 86]
Result: 100%

Problem: # return recorded Test E2 rating (% disease control) for input COc1nn(C)c(-c2c(F)cccc2F)c1C(O)c1ccc(F)cc1Cl (stereo not shown)
Result: 100%

Problem: Respond only with Test E2 rating (% disease control) recorded for Cc1nn(C)c(-c2ccc(F)cc2Cl)c1C(O)c1c(F)cc(F)cc1F (stereo not shown)
Result: 100%

Problem: Quote Test E2 rating (% disease control) reported for Cn1nc(Br)c(C(O)c2ccc(Cl)cc2Cl)c1-c1c(F)cccc1F (stereo not shown) please.
Result: 100%

Problem: Identify measured Test E2 rating (% disease control) associated with COc1nn(C)c(-c2c(F)cccc2Cl)c1C(O)c1ccc(F)cc1Cl (stereo not shown)
Result: 100%

Problem: Give Test E2 rating (% disease control) for Cc1nn(C)c(-c2c(F)cccc2Cl)c1C(O)c1c(F)cc(F)cc1F (stereo not shown)
Result: 99%

Problem: For the compound Cn1ncc(C(O)c2ccc(F)cc2Cl)c1-c1c(F)cccc1F (stereo not shown) , give its measured Test E2 rating (% disease control) value.
Result: 100%

Problem: Consider the compound Cc1nn(C)c(-c2ccccc2Br)c1C(O)c1ccc(F)cc1Cl (single isomer, unassigned) [compound 79] and give its recorded Test E2 rating (% disease control).
Result: 100%

Problem: Look up and report measured Test E2 rating (% disease control) for this entry: Cc1nn(C)c(-c2ccc(F)cc2F)c1Oc1ccc(F)cc1F
Result: 0%

Problem: Write down Test E2 rating (% disease control) measured for item Cc1nn(C)c(-c2c(F)cccc2F)c1[S+]([O-])c1ccc(Cl)cc1 (stereo not shown)
Result: 28%

###

- Tested on: Puccinia recondite f. sp. tritici
- experimental.details: Test E2: preventive spray on wheat seedlings, visual disease rating (wheat leaf rust)
- Assay type: in vivo
- details: no asterisk: standard test suspension, not 40 ppm
Field: Test E2 rating (% disease control). Provide a value for each of the compounds that follow.
Numbers only; they are read as %.

Problem: Given the compound Cc1nn(C)c(-c2c(F)cccc2Br)c1C(=O)c1ccc(F)cc1Cl [compound 93] , write its reported Test E2 rating (% disease control).
Result: 91

Problem: Report measured Test E2 rating (% disease control); entry is Cc1nn(C)c(-c2c(F)cccc2F)c1Nc1ccc(Cl)cc1Cl [compound 65]
Result: 89

Problem: # return recorded Test E2 rating (% disease control) for input Cc1nn(C)c(-c2c(F)cccc2F)c1C(O)c1ccc(C#N)cc1F (stereo not drawn) [compound 22]
Result: 88
